Target: T1, GFRα4 isoform b (GFRα4b), Fc fusion (human)
T1 construct: the entry holds the whole fusion; also called GFR4α4b; GFRα4-Fc
T1 sequence (chain, as listed by the source limits assumed): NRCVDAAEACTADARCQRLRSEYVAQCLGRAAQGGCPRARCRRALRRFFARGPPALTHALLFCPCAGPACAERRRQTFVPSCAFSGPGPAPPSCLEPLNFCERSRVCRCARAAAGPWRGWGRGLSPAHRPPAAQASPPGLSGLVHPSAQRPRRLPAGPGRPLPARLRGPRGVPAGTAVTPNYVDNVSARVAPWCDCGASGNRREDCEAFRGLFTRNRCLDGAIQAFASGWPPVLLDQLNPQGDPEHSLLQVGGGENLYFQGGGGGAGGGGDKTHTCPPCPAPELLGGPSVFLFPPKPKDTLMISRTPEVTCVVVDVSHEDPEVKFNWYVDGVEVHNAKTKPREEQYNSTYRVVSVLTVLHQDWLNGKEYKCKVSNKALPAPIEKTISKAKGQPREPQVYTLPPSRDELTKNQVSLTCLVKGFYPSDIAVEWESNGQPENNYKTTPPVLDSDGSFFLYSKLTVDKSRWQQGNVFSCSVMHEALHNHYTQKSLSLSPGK
Experiment: phage ELISA, immobilized GFRα4b; second token of the cell
Source text: To perform these ELISAs, the GFRα4a isoform comprising a portion of GFRα4a (Asn24 -Ser245, UniProt accession #Q9GZZ7-2) was used, followed by a Factor Xa cleavage site/linker, a portion of optimized IgG1 Fc domain (Pro100-Lys330), and 6 His residues for purification. The GFRα4b isoform comprised a portion of GFRα4b (Asn24-Va1274, UniProt #Q9GZZ7-1), followed by a TEV cleavage site linker, and a portion of human IgG1 Fc domain (Asp104-Lys330).
quantity-kind: binding result

Guide cases for binding result, answers given:
binder	binding result
18.H1.L3m3 (scFv, pIII not in the entry; order Vλ-linker-VH; also called scFv 18) scFv: QSALTQPASVSGSPGQSITISCTGTSAHKTYTIDWYQQHPGKAPKLMIYVKSDGSYTKGTGVSNRFSGSKSGNTASLTISGLQAEDEADYYCGADDNGGYVFGGGTQLTVLGGGSSRSSSSGGGGSGGGGQVQLQESGPGLVKPSETLSLTCAVSGYSISRHALTWIRQPPGKGLEWIGAIDNAGTTYYASWAKSRVTISVDTSKNQFSLKLSSVTAADTAVYYCARVFYDINSGYYLDGMDLWGPGTLVTVSS	no binding
23.H1.L2m1 (scFv, pIII not in the entry; order Vλ-linker-VH; also called scFv 23) scFv: QFVLTQPPSASGTPGQRVTISCTLSSAHKTYTIDWYQQLPGTAPKLLIYVKSDGSYTKGTGVPDRFSGSSSGADRYLAISGLQSEDEADYYCGADDNGGYVFGGGTQLTVTGGGSSRSSSSGGGGSGGGGQVQLQESGPGLVKPSETLSLTCAVSGYSISRHALTWIRQPPGKGLEWIGAIDNAGTTYYASWAKSRVTISVDTSKNQFSLKLSSVTAADTAVYYCARVFYDINSGYYLDGMDLWGPGTLVTVSS	binds
21.H2.L1m2 (scFv, pIII not in the entry; order Vλ-linker-VH; also called scFv 21) scFv: QFVLTQSPSASASLGASVKLTCTLSSAHKTYTIDWHQQQPEKGPRYLMQVKSDGSYTKGTGIPDRFSGSSSGAERYLTISSLQSEDEADYYCGADDNGGYVFGGGTQLTVLGGGSSRSSSSGGGGSGGGGEVQLVESGGGLVQPGGSLRLSCAASGFTFSRHALTWVRQAPGKGLEWVSAIDNAGTTYYASWAKSRFTISRDNAKNSLYLQMNSLRAEDTAVYYCARVFYDINSGYYLDGMDLWGPGTLVTVSS	no binding
25.H1.L1m3 (scFv, pIII not in the entry; order Vλ-linker-VH; also called scFv 25) scFv: QLVLTQSPSASASLGASVKLTCTLSSAHKTYTIDWYQQQPEKGPRYLMQVKSDGSYTKGTGVPDRFSGSSSGADRYLTISSLQSEDEADYYCGADDNGGYVFGGGTQLTVLGGGSSRSSSSGGGGSGGGGQVQLQESGPGLVKPSETLSLTCAVSGYSISRHALTWIRQPPGKGLEWIGAIDNAGTTYYASWAKSRVTISVDTSKNQFSLKLSSVTAADTAVYYCARVFYDINSGYYLDGMDLWGPGTLVTVSS	binds

Turning now to a further record.
query: Form field: reported binding result of 8.H2m1.L2m1 (scFv, pIII not in the entry; order Vλ-linker-VH; The printed entry has an E before QSVKE of the VH; also called scFv 8) scFv: QFVLTQPPSASGTPGQRVTISCTLSSAHKTYTIDWYQQLPGTAPKLLIYVKSDGSYTKGTGVPDRFSGSSSGADRYLAISGLQSEDEADYYCGADDNGGYVFGGGTQLTVTGGGSSRSSSSGGGGSGGGGEQSVKESGGGLVQPGGSLRLSCAASGFTLSRHALTWVRQAPGKGLEWIGAIDNAGTTYYASWAKSRFTISRNTDLHTVYLQMNSLRAEDTAVYFCARVFYDINSGYYLDGMDLWGPGTLVTVSS
result: binds
